The reported numbers originate from PubChem BioAssay.

assay: drug combination growth inhibition, ovarian cancer – cell-based, oncology-focused library, rucaparib conditional, profiling panel (AID 1508598); conditions: patient-derived ovarian cancer cells, CellTiter-Glo viability, 144 h; at 0.000305 µM; OCI-C5x cells; with rucaparib 10 µM; hits give low values; 100% = cells with rucaparib alone
Collected viability values appear next to each entry.
Numeric only. Scale: %

Use these answered entries as a reference point.
[
  {
    "COMPOUND": "CC(C)(C)Cn1c(N)nc2ccc(-c3[nH]c(C(C)(C)C)nc3-c3ccc(F)cc3)nc21",
    "MEASUREMENT_NAME": "viability",
    "DATA_VALUE": 114
  },
  {
    "COMPOUND": "CC(C)C[C@H](NC(=O)CNC(=O)c1cc(Cl)ccc1Cl)B1OC(=O)CC(CC(=O)O)(C(=O)O)O1 (stereo partly specified)",
    "MEASUREMENT_NAME": "viability",
    "DATA_VALUE": 104
  },
  {
    "COMPOUND": "Cc1cccc(Nc2nc(-c3ccncc3)cs2)c1",
    "MEASUREMENT_NAME": "viability",
    "DATA_VALUE": 109
  },
  {
    "COMPOUND": "COc1cc(Nc2nc3ccccc3nc2NS(=O)(=O)c2ccc(NC(=O)c3ccc(C)c(OC)c3)cc2)cc(OC)c1",
    "MEASUREMENT_NAME": "viability",
    "DATA_VALUE": 98.9
  },
  {
    "COMPOUND": "CCc1cc(Nc2nccc(-c3c(-c4ccc(OC)c(C(=O)Nc5c(F)cccc5F)c4)nc4ccccn34)n2)c(OC)cc1N1CCC(N2CCN(S(C)(=O)=O)CC2)CC1",
    "MEASUREMENT_NAME": "viability",
    "DATA_VALUE": 118
  }
]

(Q) Consider the compound "CC1(C)CCC(c2ccc(Cl)cc2)=C(CN2CCN(c3ccc(C(=O)NS(=O)(=O)c4ccc(N[C@H](CCN5CCOCC5)CSc5ccccc5)c(S(=O)(=O)C(F)(F)F)c4)cc3)CC2)C1" and give its measured viability.
(A) 37.1

(Q) Can you handle "Cc1cnc(Nc2ccc(OCCN3CCCC3)cc2)nc1Nc1cccc(S(=O)(=O)NC(C)(C)C)c1" next?
(A) 104

(Q) Now this one: "Cc1ccc(NC(=O)c2cccc(C(C)(C)C#N)c2)cc1Nc1ccc2ncn(C)c(=O)c2c1"
(A) 126

(Q) Note, next up: "C[C@H](NC(=O)Cc1cc(F)cc(F)c1)C(=O)N[C@@H]1C(=O)N(C)c2ccccc2-c2ccccc21"
(A) 117

(Q) Then what about the compound "COc1cc(OC)c(/C=C/S(=O)(=O)Cc2ccc(OC)c(NCC(=O)O)c2)c(OC)c1" ?
(A) 110

(Q) Ok, now "CN1CCN(CCOc2cc(OC3CCOCC3)c3c(Nc4c(Cl)ccc5c4OCO5)ncnc3c2)CC1"
(A) 98.7

(Q) Queued: "CC(C)n1nc(-c2ccc3oc(N)nc3c2)c2c(N)ncnc21"
(A) 109

(Q) Same thing, different compound: "Cn1cc(-c2ccc3c(c2)CCN3C(=O)Cc2cccc(C(F)(F)F)c2)c2c(N)ncnc21"
(A) 120

(Q) Now consider "Cc1cnc(-c2cnc(NCCNc3ccc(C#N)cn3)nc2-c2ccc(Cl)cc2Cl)[nH]1" and answer again.
(A) 111

(Q) What about this compound? "Cc1ccc(C(=O)Nc2ccc(CN3CCN(C)CC3)c(C(F)(F)F)c2)cc1C#Cc1cnc2cccnn12"
(A) 94.7

(Q) Same question for "CS(=O)(=O)N1CCc2c(-c3cnc(N)nc3)nc(N3CCOCC3)nc21" please.
(A) 100

(Q) "CNC(=O)c1cc(Oc2ccc(NC(=O)Nc3cc(C(C)(C)C)nn3-c3ccc4ncccc4c3)c(F)c2)ccn1" ?
(A) 112

(Q) Another compound: "CS(=O)(=O)c1ccc(C(=O)Nc2ccc(Cl)c(-c3ccccn3)c2)c(Cl)c1"
(A) 124

(Q) And what about the compound "Cc1ccc2c(=O)c3cccc(CC(=O)O)c3oc2c1C" ?
(A) 94.7

(Q) Another: "Oc1cccc(-c2nc(N3CCOCC3)c3oc4ncccc4c3n2)c1"
(A) 109

(Q) Do the same for "CC(=O)c1c(C)c2cnc(Nc3ccc(N4CCNCC4)cn3)nc2n(C2CCCC2)c1=O" please
(A) 132

(Q) Follow-up entry: "C=CC(=O)N1CCC[C@@H](n2nc(-c3ccc(Oc4ccccc4)cc3)c3c(N)ncnc32)C1"
(A) 99.2
